- SYSTEM: DNMT1 (amino acids 621–1616) (Homo sapiens, UniProt P26358)
- Construct: RFTS-lacking DNMT1, amino acids 621–1616; made in house
- Sequence (P26358 621-1616): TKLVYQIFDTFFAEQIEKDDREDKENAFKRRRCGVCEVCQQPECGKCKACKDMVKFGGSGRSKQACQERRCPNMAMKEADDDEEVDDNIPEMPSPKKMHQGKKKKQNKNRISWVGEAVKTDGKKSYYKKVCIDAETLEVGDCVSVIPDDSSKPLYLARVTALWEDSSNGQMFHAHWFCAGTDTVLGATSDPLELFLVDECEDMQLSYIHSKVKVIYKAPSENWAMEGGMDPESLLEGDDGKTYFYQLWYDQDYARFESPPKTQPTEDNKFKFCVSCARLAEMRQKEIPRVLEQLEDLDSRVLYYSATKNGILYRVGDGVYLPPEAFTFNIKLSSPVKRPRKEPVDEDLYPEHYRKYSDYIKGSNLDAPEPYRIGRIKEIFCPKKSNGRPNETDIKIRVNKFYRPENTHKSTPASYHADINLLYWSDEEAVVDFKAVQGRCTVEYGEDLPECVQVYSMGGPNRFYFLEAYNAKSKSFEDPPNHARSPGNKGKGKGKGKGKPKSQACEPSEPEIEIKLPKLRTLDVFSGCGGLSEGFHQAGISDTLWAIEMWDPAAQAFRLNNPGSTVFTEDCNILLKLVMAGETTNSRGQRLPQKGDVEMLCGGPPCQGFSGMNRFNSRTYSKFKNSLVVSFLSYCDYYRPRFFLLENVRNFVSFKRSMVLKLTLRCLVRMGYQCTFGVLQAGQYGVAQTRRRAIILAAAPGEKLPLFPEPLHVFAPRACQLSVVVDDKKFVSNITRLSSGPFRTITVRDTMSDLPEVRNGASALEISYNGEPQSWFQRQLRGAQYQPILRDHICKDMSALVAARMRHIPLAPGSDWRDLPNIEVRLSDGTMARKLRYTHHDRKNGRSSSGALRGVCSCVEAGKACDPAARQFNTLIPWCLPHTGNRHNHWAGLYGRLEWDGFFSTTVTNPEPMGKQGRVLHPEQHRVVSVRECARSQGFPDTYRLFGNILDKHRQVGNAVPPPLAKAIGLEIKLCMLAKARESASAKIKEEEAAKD
- MEASUREMENT_NOTES: Differential scanning fluorimetry (DSF) assay
- Assay type: binding
- TEST_SETTINGS: shift versus DMSO control; 100 µM compound
ASSAY_METRIC: ∆Tm

{"columns": ["COMPOUND", "REPORTED_RESULT"],
 "data": [
  ["O=C(O)c1cc(O)c2c(c1)[C@@H]([C@H]1c3cc(C(=O)O)cc(O)c3C(=O)c3c(O[C@H]4O[C@H](CO)[C@@H](O)[C@H](O)[C@H]4O)cccc31)c1cccc(O[C@H]3O[C@H](CO)[C@@H](O)[C@H](O)[C@H]3O)c1C2=O", "+1.0 ºC"],
  ["CC1/C=C/C=C/C=C/C=C/C=C/C=C/C=C/C(O[C@@H]2O[C@H](C)[C@H](O)[C@@H](O)[C@@H]2N)CC(O)C(C(=O)O)C(O)CC(=O)CC(O)CC(O)CC(O)CC(=O)CCCC(=O)CC(=O)OC1C(C)CC(C)C(O)CC(=O)c1ccc(N)cc1 (stereo partly drawn)", "+1.0 ºC"],
  ["O=C(O)C(S)C(S)C(=O)O (stereo not drawn)", "+2.5 ºC"],
  ["CSc1nc2cc(Cl)c(Oc3cccc(Cl)c3Cl)cc2[nH]1", "+1.8 ºC"],
  ["O=C(O)c1cc(O)c2c(c1)[C@@H]([C@@H]1c3cc(C(=O)O)cc(O)c3C(=O)c3c(O[C@H]4O[C@H](CO)[C@@H](O)[C@H](O)[C@H]4O)cccc31)c1cccc(O[C@H]3O[C@H](CO)[C@@H](O)[C@H](O)[C@H]3O)c1C2=O", "+0.9 ºC"]
]}

Moving on to the next compound.
Give a short answer stating reported ∆Tm for `O=c1c(O)c(-c2ccc(O)c(O)c2)oc2c(O)c(O)cc(O)c12` .
+17.9 ºC
